- target.of.assay: human TLR2 (Homo sapiens, UniProt O60603)
- Construct: host or cells: HEK-Blue hTLR2 (HEK-293)
- Sequence (O60603 21-784): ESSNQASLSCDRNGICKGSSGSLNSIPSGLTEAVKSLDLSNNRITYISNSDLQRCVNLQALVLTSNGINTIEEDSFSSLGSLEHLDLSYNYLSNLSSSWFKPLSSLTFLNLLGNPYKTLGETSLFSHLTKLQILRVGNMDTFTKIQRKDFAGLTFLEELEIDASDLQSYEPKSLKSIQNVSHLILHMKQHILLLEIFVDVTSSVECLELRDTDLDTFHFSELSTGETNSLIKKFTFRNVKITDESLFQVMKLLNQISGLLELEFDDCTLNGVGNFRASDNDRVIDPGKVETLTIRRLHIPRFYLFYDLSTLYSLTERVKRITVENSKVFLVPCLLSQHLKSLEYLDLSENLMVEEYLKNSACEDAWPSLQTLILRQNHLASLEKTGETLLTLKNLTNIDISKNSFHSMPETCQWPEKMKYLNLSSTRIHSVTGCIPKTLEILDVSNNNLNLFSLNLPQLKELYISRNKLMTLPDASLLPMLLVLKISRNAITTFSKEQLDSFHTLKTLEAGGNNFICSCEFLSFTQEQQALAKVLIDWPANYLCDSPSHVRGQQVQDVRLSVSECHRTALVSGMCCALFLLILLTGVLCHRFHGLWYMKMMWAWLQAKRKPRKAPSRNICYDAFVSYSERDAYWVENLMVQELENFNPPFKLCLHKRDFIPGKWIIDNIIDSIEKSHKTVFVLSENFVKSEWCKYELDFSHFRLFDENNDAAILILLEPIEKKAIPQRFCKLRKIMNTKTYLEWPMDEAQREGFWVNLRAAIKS
- test.description: HEK-Blue hTLR2 antagonism assay (SEAP reporter) with agonist Pam2CSK4 (TLR2/6 agonist)
- Format: cell-based
- cond: Table B; HEK-Blue hTLR2 cells, ~3×EC50 Pam2CSK4, 18 h, SEAP OD 655 nm, 8-point dilutions
Output Y for records whose IC50 is lower than 4 µM, N for records at or above 4 µM.

Use these answered entries as a reference point.
Answer whether the compound `O=Cc1cc(C(=O)Nc2ccc(N3CCC(N4CCCC4)CC3)cc2)cc(F)c1O` has IC50 strictly less than 4 µM
N

Answer whether the compound `O=Cc1cc(C(=O)Nc2ccc(N3Cc4ccccc4C3)cc2)cc(F)c1O` has IC50 strictly less than 4 µM
Y

Answer whether the compound `O=Cc1cc(C(=O)Nc2ccc(N3CCCN(C4CC4)CC3)cc2)cc(F)c1O` has IC50 strictly less than 4 µM
N

Answer whether the compound `O=Cc1cc(C#Cc2ccc(N3CCCCC3)cc2)cc(F)c1O` has IC50 strictly less than 4 µM
Y

Answer whether the compound `O=Cc1cc(NC(=O)Nc2ccc(F)cc2)cc(F)c1O` has IC50 strictly less than 4 µM
N

Answer whether the compound `O=Cc1cc(C#Cc2ccc(N3CCOCC3)cc2)cc(F)c1O` has IC50 strictly less than 4 µM
Y

***
Answer whether the compound `O=Cc1cc(C#Cc2ccc(N3CCCC3)cc2)cc(F)c1O` has IC50 strictly less than 4 µM
Y

Answer whether the compound `Cn1cc(-c2ccc(NC(=O)c3cc(F)c(O)c(C=O)c3)cc2)cn1` has IC50 strictly less than 4 µM
N

Answer whether the compound `O=Cc1cc(C(=O)Nc2ccc(N3CCC(F)(F)C3)cc2)cc(F)c1O` has IC50 strictly less than 4 µM
Y

====

- target.of.assay: human TLR9 (Homo sapiens)
- Construct: host or cells: HEK-Blue hTLR9 (HEK-293)
- Sequence (Q9NR96 26-1032): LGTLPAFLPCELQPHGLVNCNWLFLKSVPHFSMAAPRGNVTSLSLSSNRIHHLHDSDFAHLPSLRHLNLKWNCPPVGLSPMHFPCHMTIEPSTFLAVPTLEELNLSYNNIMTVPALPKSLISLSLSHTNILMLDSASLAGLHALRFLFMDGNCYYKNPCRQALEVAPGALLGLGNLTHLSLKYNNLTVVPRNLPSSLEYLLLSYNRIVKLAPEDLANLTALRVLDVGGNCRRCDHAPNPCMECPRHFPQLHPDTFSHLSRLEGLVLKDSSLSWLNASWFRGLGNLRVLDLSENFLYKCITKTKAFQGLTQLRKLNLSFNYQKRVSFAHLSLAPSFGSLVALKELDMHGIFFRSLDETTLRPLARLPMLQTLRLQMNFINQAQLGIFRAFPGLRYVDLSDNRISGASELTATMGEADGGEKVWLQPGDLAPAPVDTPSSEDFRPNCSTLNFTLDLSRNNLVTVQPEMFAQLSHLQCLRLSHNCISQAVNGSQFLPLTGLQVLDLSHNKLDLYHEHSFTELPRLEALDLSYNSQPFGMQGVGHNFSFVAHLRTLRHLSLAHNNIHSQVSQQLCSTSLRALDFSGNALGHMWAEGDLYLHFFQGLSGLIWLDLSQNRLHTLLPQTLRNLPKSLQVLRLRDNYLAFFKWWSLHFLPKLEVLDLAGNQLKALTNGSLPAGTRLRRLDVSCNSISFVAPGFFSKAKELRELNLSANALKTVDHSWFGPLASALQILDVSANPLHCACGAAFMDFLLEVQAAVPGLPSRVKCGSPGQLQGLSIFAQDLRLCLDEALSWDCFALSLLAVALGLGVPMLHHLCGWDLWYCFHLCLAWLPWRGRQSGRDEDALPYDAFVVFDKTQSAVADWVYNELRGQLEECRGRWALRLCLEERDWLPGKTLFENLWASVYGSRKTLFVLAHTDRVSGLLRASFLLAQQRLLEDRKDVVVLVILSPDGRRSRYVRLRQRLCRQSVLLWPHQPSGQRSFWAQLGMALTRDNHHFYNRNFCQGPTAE
- test.description: HEK-Blue hTLR9 assay (SEAP reporter) with agonist ODN 2006
- Assay type: cell-based
- cond: Table A; HEK-Blue hTLR9 cells, ~3×EC50 ODN 2006, 18 h; exact values 8-point dilutions, approximate (~ or <) 4-point dilutions; read-out: ~IC50 (μM) with ODN2006
measurement.kind: IC50

Return reported IC50; argument: `Cc1cc(-c2cnn(-c3ccccc3)c2)cc(O)c1F`
> 33 µM

Return reported IC50; argument: `O=Cc1cc(-c2cnc(-c3ccccc3)o2)cc(F)c1O`
~3 µM

Return reported IC50; argument: `COc1cc(-c2ccn(-c3ccccc3)n2)cc(C=O)c1O`
~3 µM

Return reported IC50; argument: `O=Cc1cc(-c2cn(-c3ccc(N4CCCC4)cc3)cn2)cc(F)c1O`
< 1.2 µM

Return reported IC50; argument: `O=Cc1cc(-c2cn(-c3ccc(N4CCCC4)cc3)nn2)cc(F)c1O`
< 1.2 µM

Could you report IC50 for every entry in the following list?
1. Oc1c(F)cc(-c2cnn(-c3ccccc3)c2)cc1Cl
2. O=Cc1cc(-n2cc(-c3ccc(N4CCCC4)cc3)nn2)cc(F)c1O
3. O=Cc1cc(-c2cnn(-c3cccc(N4CCCC4)c3)c2)cc(F)c1O
4. O=Cc1cc(-c2cnn(-c3ccc(N4CCCC4)cc3)c2)cc(F)c1O
5. COc1cc(-c2cnn(-c3ccccc3)c2)cc(C=O)c1O
6. COc1cc(-c2cnn(CCN3CCOCC3)c2)cc(C=O)c1O

["> 33 µM", "0.1 µM", "> 10 µM", "< 1.2 µM", "~2 µM", "> 33 µM"]

Could you report IC50 for every entry in the following list?
1. O=Cc1cc(-c2ccn(-c3ccccc3)n2)cc(F)c1O
2. O=Cc1cc(-c2nc(-c3ccccc3)cs2)cc(F)c1O
3. O=Cc1cc(-c2cnc(-c3ccc(N4CCCC4)cc3)s2)cc(F)c1O
4. Oc1cc(-c2cnn(-c3ccccc3)c2)cc(F)c1F
5. O=Cc1cc(-c2nc(-c3ccccc3)n[nH]2)cc(F)c1O
6. O=Cc1cc(-c2nc(-c3ccc(N4CCCC4)cc3)ns2)cc(F)c1O
7. O=Cc1cc(-c2ccn(-c3ccc(N4CCCC4)cc3)n2)cc(F)c1O

["~3 µM", "< 1.2 µM", "0.2 µM", "> 33 µM", "~6.3 µM", "0.2 µM", "< 1.2 µM"]

Return reported IC50; argument: `COCCCn1cc(-c2cc(C=O)c(O)c(OC)c2)cn1`
> 33 µM

====

- target.of.assay: human TLR2 (Homo sapiens, UniProt O60603)
- Construct: host or cells: HEK-Blue hTLR2 (HEK-293)
- test.description: HEK-Blue hTLR2 antagonism assay (SEAP reporter) with agonist Pam3CSK4 (TLR1/2 agonist)
- Type: cell-based
- cond: Table A; HEK-Blue hTLR2 cells, ~3×EC50 Pam3CSK4, 18 h, SEAP OD 655 nm, 8-point dilutions
- Experimental: Synthetic diacylated lipoprotein (Pam2CSK4, TLR2/6 agonist) and synthetic triacylated lipoprotein (Pam3CSK4, TLR1/2 agonist) were obtained from InvivoGen and were dissolved in endotoxin-free water to a concentration 1 mg/mL, vortexed until complete solubilization, and stored in aliquots at −20° C. […] On day 2, secreted alkaline phosphatase (SEAP) activity was detected in cell culture supernatants. […] IC50 values were calculated based on 8-point dilutions for each compound.
measurement.kind: log10(IC50) (log10 of the value in µM)
Scale type: logarithmic (base 10). Underlying IC50 unit: µM.

Sample answers from the record:
Return reported log10(IC50); argument: O=Cc1cc(-c2ccn(-c3cccc(N4CCOCC4)c3)n2)cc(F)c1O [Compound A32]
1.24

Return reported log10(IC50); argument: COCCCn1cc(-c2cc(C=O)c(O)c(OC)c2)cn1 [Compound A7]
1.63

Return reported log10(IC50); argument: Cc1cc(-c2cnn(-c3ccccc3)c2)cc(Cl)c1O [Compound A17]
1.64

Return reported log10(IC50); argument: O=Cc1cc(-c2cnn(-c3cccc(N4CCCC4)c3)c2)cc(F)c1O [Compound A22]
-0.05

Could you report log10(IC50) for every entry in the following list?
1. O=Cc1cc(-c2cnc(-c3ccc(N4CCCCC4)nc3)s2)cc(F)c1O [Compound A127]
2. O=Cc1cc(-c2cnn(-c3cccc(N4CCCCC4)c3)c2)cc(F)c1O [Compound A23]
3. O=Cc1cc(-c2cn(-c3ccc(N4CCCC4)cc3)nn2)cc(F)c1O [Compound A43]
4. CC1(C)CCN(c2ccc(-c3csc(-c4cc(F)c(O)c(C=O)c4)n3)cc2)C1 [Compound A105]

[-0.15, -0.05, 0.04, -0.30]

====

- target.of.assay: human TLR9 (Homo sapiens)
- Construct: host or cells: HEK-Blue hTLR9 (HEK-293)
- test.description: HEK-Blue hTLR9 assay (SEAP reporter) with agonist ODN 2006
- Type: cell-based
- cond: Table B; HEK-Blue hTLR9 cells, ~3×EC50 ODN 2006, 18 h; exact values 8-point dilutions, approximate (~ or <) 4-point dilutions; read-out: ~IC50 (μM) with ODN2006
- Experimental: Synthetic ODNs (ODN 2006 (ODN7909), class B CpG oligonucleotide, TLR9 agonist) was obtained from InvivoGen and was dissolved in endotoxin-free water to a concentration 500 μM, vortexed until complete solubilization, and stored in aliquots at −20° C. […] On day 2, secreted alkaline phosphatase (SEAP) activity was detected in cell culture supernatants. […] Plates were incubated at 37° C. for 60 min. and SEAP activity was assessed by spectrophotometer OD reading at 655 nm. […]
measurement.kind: IC50 (µM)
Answers are plain numbers, in µM.

Return reported IC50; argument: CC1(C)CN(c2ccc(NC(=O)c3cc(F)c(O)c(C=O)c3)cn2)c2ccccc21 [Compound B87]
0.1

***
Return reported IC50; argument: CC1(C)CCN(c2ccc(NC(=O)c3cc(F)c(O)c(C=O)c3)cc2)C1 [Compound B73]
0.3

====

- target.of.assay: human TLR2 (Homo sapiens)
- Construct: host or cells: HEK-Blue hTLR2 (HEK-293)
- test.description: HEK-Blue hTLR2 antagonism assay (SEAP reporter) with agonist Pam3CSK4 (TLR1/2 agonist)
- Format: cell-based
- cond: Table A; HEK-Blue hTLR2 cells, ~3×EC50 Pam3CSK4, 18 h, SEAP OD 655 nm, 8-point dilutions
measurement.kind: IC50 (µM)
Give bare numbers, in µM.

Return reported IC50; argument: `O=Cc1cc(-c2ccn(-c3ccccc3)n2)cc(F)c1O`
2.7

Return reported IC50; argument: `O=Cc1cc(-c2ccc(-c3ccc(N4CCCC4)cc3)s2)cc(F)c1O`
0.9

Return reported IC50; argument: `O=Cc1cc(-c2csc(-c3ccc(N4C[C@H]5CCC[C@H]5C4)cc3)n2)cc(F)c1O`
0.3

Could you report IC50 for every entry in the following list?
1. O=Cc1cc(-c2cn(-c3ccc(N4CCCC4)cc3)cn2)cc(F)c1O
2. O=Cc1cc(-c2csc(-c3ccc(Cl)cc3)n2)cc(F)c1O

1. 1.3
2. 0.9
